test system: RXF 631; assay: NCI tumour cell line growth inhibition, 48 h
Activity calls are given as the source filed them. Rule as the data show it: active = GI50 up to about 1.1 µM and inactive = higher.
Use one of these outcomes when replying: true (1) for active, false (0) for inactive

Illustrative cases are given below, each with its answer.
# compound, label
data = [
    ("O=C1C=CC(=O)c2ccc(=O)ccc21", "false (0)"),
    ("COC(=O)C(CC(=O)c1c[nH]c2ccccc12)c1c[nH]c2ccccc12 (configuration not stated)", "false (0)"),
    ("CCN(CC)c1c(C)nnn1C1OC(COC(C)=O)C(OC(C)=O)C(OC(C)=O)C1OC(C)=O (configuration not stated)", "false (0)"),
]

Request: How was O=C1CC(c2n[nH]c3ccccc23)C(=O)N1c1ccccc1 (configuration not stated) classified in this test?
Response: false (0)

Request: How was CN1CCc2cc3c4cc2C1Cc1ccc(cc1)Oc1cc(ccc1O)CC1c2c(cc(O)c(c2O4)O3)CCN1C (configuration not stated) classified in this test?
Response: false (0)

Request: How was C/C(=N\NC(=S)N1CCC1)c1ccccn1 classified in this test?
Response: true (1)

Request: How was Cc1cc2c(=O)c(C)n[nH]c2c(C#N)c1C classified in this test?
Response: false (0)

====

test system: SW-620; assay: NCI tumour cell line growth inhibition, 48 h
Activity calls are given as the source filed them. Cut-off read from the data, not from the text of the source: active = GI50 up to about 1.1 µM and inactive = higher.
Use one of these outcomes when replying: 1.0 (active), 0.0 (inactive)

Illustrative cases are given below, each with its answer.
# compound, label
rows = [
    ("Cc1ccc(S(=O)(=O)N/N=C(/CC(=O)c2c(C)[n+]([O-])c3ccccc3[n+]2[O-])C(=O)Nc2ccc(C)c(C)c2)cc1", 0.0),
    ("O=C(N/N=C1\\CCc2ccccc2C1)N/N=C1\\CCc2ccccc2C1", 0.0),
    ("N[C@H](C(=O)O)[C@H]1ON=C(Cl)[C@@H]1O", 0.0),
    ("CC(C)(C)/C(O)=C\\c1nc2ccc(C(F)(F)F)cc2[nH]c1=O", 0.0),
    ("O=C/C1=C/C2=Cc3ccccc3C=C(/C=C(/C=O)C1)C2", 0.0),
    ("O=c1c(C(c2ccc(-c3ccccc3)cc2)c2c(O)oc3ccccc3c2=O)c(O)oc2ccccc12", 0.0),
    ("COc1cc(CCCOC(=O)/C=C/c2ccc(O)c(O)c2)cc(O)c1O", 0.0),
    ("Cc1ccc(Nc2nc3[nH]ccc3c(=O)[nH]2)cc1", 0.0),
]

Request: How was N/N=C(\N)SCCCCCCCCCCS/C(N)=N/N classified in this test?
Response: 0.0

Request: How was CC(=O)N[C@@H](Cc1ccc(O)cn1)C(=O)NCc1ccc(Cl)cc1 classified in this test?
Response: 0.0

Request: How was O=C1C(=O)N(c2cc(Cl)ccc2Cl)C(=O)C(=O)C1c1nc2ccccc2s1 classified in this test?
Response: 0.0

Request: How was C#CCOc1c(C(=O)OCC)c(=O)n(C)c2ccccc12 classified in this test?
Response: 0.0

Request: How was CN(C)c1ccc(C(=O)NCCCCCCC(=O)NO)cc1 classified in this test?
Response: 1.0

Request: How was CCCCN/C(=N\C#N)N(Cc1ccccc1)Cc1ccccc1 classified in this test?
Response: 0.0

Request: How was Cc1ccccc1NC(=O)C(=O)CC(=O)c1sc(-n2nc(-c3ccccc3)cc2-c2ccccc2)nc1C classified in this test?
Response: 0.0

// provenance: ChEMBL document CHEMBL1201862
